Plating efficiency (%) in M2 cells values for the molecules below.
# Tested on: M2 mouse fibroblasts
# experiment-notes: Plating efficiency of M2 mouse fibroblasts
# Type: cell-based
# run-parameters: 10.0 µg/ml, 24 h, Table I
property-measured: Plating efficiency (%) in M2 cells

O[C@@H]1C=Cc2cc3ccc4ccccc4c3cc2[C@H]1O (relative stereo) [trans-10,11-Dihydro-10,11-dihydroxy-BA, trans-10,11-dihydro-10,11-dihydroxy-BA] = 29
Cc1c2c(c(C)c3ccccc13)[C@@H](O)[C@H](O)c1ccccc1-2 (relative stereo) [trans-5,6-Dihydro-5,6-dihydroxy-DMBA, trans-5,6-dihydro-5,6-dihydroxy-DMBA] = 20
O[C@@H]1c2ccccc2-c2cc3ccccc3cc2[C@H]1O (relative stereo) [trans-5,6-Dihydro-5,6-dihydroxy BA, trans-5,6-Dihydro-5,6-dihydroxy-BA] = 40
